assay: BIAcore binding of proteins to heparin immobilised on a biosensor chip; conditions: IL-4 WT and mutants binding to heparin; in s-1 (unit assumed)
List of kd values.
propertyLabel: kd

molecule="K77A: IL-4 mutant, baculovirus expressed (protein) HKCDITLQEIIKTLNSLTEQKTLCTELTVTDIFAASKNTTEKETFCRAATVLRQFYSHHEKDTRCLGATAQQFHRHAQLIRFLKRLDRNLWGLAGLNSCPVKEANQSTLENFLERLKTIMREKYSKCSS" endpointresult=2.24E−03
molecule="K12A: IL-4 mutant, baculovirus expressed (protein) HKCDITLQEIIATLNSLTEQKTLCTELTVTDIFAASKNTTEKETFCRAATVLRQFYSHHEKDTRCLGATAQQFHRHKQLIRFLKRLDRNLWGLAGLNSCPVKEANQSTLENFLERLKTIMREKYSKCSS" endpointresult=3.95E−03
molecule="E9A: IL-4 mutant, baculovirus expressed (protein) HKCDITLQAIIKTLNSLTEQKTLCTELTVTDIFAASKNTTEKETFCRAATVLRQFYSHHEKDTRCLGATAQQFHRHKQLIRFLKRLDRNLWGLAGLNSCPVKEANQSTLENFLERLKTIMREKYSKCSS" endpointresult=8.45E−03
molecule="K77A/K12A: IL-4 double mutant (protein, UniProt P05112 25-153, looked up, variant K77A K12A) Interleukin-4: HKCDITLQEIIATLNSLTEQKTLCTELTVTDIFAASKNTTEKETFCRAATVLRQFYSHHEKDTRCLGATAQQFHRHAQLIRFLKRLDRNLWGLAGLNSCPVKEANQSTLENFLERLKTIMREKYSKCSS" endpointresult=3.44E−03
molecule="R85A: IL-4 mutant, baculovirus expressed (protein) HKCDITLQEIIKTLNSLTEQKTLCTELTVTDIFAASKNTTEKETFCRAATVLRQFYSHHEKDTRCLGATAQQFHRHKQLIRFLKALDRNLWGLAGLNSCPVKEANQSTLENFLERLKTIMREKYSKCSS" endpointresult=2.42E−03
molecule="K42A: IL-4 mutant, baculovirus expressed (protein) HKCDITLQEIIKTLNSLTEQKTLCTELTVTDIFAASKNTTEAETFCRAATVLRQFYSHHEKDTRCLGATAQQFHRHKQLIRFLKRLDRNLWGLAGLNSCPVKEANQSTLENFLERLKTIMREKYSKCSS" endpointresult=2.50E−03
molecule="K77A/R88V: IL-4 double mutant (protein, UniProt P05112 25-153, looked up, variant K77A R88V) Interleukin-4: HKCDITLQEIIKTLNSLTEQKTLCTELTVTDIFAASKNTTEKETFCRAATVLRQFYSHHEKDTRCLGATAQQFHRHAQLIRFLKRLDVNLWGLAGLNSCPVKEANQSTLENFLERLKTIMREKYSKCSS" endpointresult=1.94E−03
molecule="R53A: IL-4 mutant, baculovirus expressed (protein) HKCDITLQEIIKTLNSLTEQKTLCTELTVTDIFAASKNTTEKETFCRAATVLAQFYSHHEKDTRCLGATAQQFHRHKQLIRFLKRLDRNLWGLAGLNSCPVKEANQSTLENFLERLKTIMREKYSKCSS" endpointresult=5.40E−03
molecule="H74A: IL-4 mutant, baculovirus expressed (protein, UniProt P05112 25-153, looked up, variant H74A) Interleukin-4: HKCDITLQEIIKTLNSLTEQKTLCTELTVTDIFAASKNTTEKETFCRAATVLRQFYSHHEKDTRCLGATAQQFARHKQLIRFLKRLDRNLWGLAGLNSCPVKEANQSTLENFLERLKTIMREKYSKCSS" endpointresult=6.37E−04
molecule="K77A/R53A: IL-4 double mutant (protein) HKCDITLQEIIKTLNSLTEQKTLCTELTVTDIFAASKNTTEKETFCRAATVLAQFYSHHEKDTRCLGATAQQFHRHAQLIRFLKRLDRNLWGLAGLNSCPVKEANQSTLENFLERLKTIMREKYSKCSS" endpointresult=3.08E−03
molecule="K84A: IL-4 mutant, baculovirus expressed (protein) HKCDITLQEIIKTLNSLTEQKTLCTELTVTDIFAASKNTTEKETFCRAATVLRQFYSHHEKDTRCLGATAQQFHRHKQLIRFLARLDRNLWGLAGLNSCPVKEANQSTLENFLERLKTIMREKYSKCSS" endpointresult=2.57E−03
molecule="K77A/K84A: IL-4 double mutant (protein) HKCDITLQEIIKTLNSLTEQKTLCTELTVTDIFAASKNTTEKETFCRAATVLRQFYSHHEKDTRCLGATAQQFHRHAQLIRFLARLDRNLWGLAGLNSCPVKEANQSTLENFLERLKTIMREKYSKCSS" endpointresult=2.23E−03

These data points were gathered from patent US8209131B2.
